Target: CD73 (Homo sapiens (Human))
Assay: MDA-MB-231 Cell Based CD73 Activity Assay (DMEM)
Conditions: MDA-MB-231-GFP cells, DMEM medium with 10% human plasma, 200 uM AMP
pEC50: −log10 of the molar value.
Note to self: values exactly at 8 are Fulfilled. So pEC50 at or above 8 is Fulfilled, below is Not fulfilled.

1) O=c1[nH]cc(-c2cc(N3CC(Oc4cnc(C(F)(F)F)cn4)C(F)(F)C3)c3nccn3n2)c(=O)[nH]1 (stereo not drawn) [Example 340]	Not fulfilled
2) O=c1[nH]cc(-c2cc(NCCc3ccccc3F)c3nccn3n2)c(=O)[nH]1 [Example 493]	Not fulfilled
3) O=c1[nH]cc(-c2cc(N3CCC(F)(c4ccc(F)cc4)C3)c3nccn3n2)c(=O)[nH]1 (stereo not drawn) [Example 255]	Not fulfilled
4) O=c1[nH]cc(-c2cc(N3CCC(F)(F)C3)c3nccn3n2)c(=O)[nH]1 [Example 79]	Not fulfilled
5) CC1(C)CN(c2cc(-c3c[nH]c(=O)[nH]c3=O)nn3ccnc23)C1 [Example 63]	Not fulfilled
6) O=c1[nH]cc(-c2cc(NC[C@@H](F)c3ccccc3)c3nccn3n2)c(=O)[nH]1 [Example 494]	Not fulfilled
7) O=c1[nH]cc(-c2cc([C@H]3C[C@@H]3c3ccc(OC(F)F)cc3)c3nccn3n2)c(=O)[nH]1 [Example 561]	Fulfilled
8) CC1(C)CN(c2cc(-c3c[nH]c(=O)[nH]c3=O)nc3c(Cl)cnn23)CC1(F)F [Example 220]	Not fulfilled
9) O=c1[nH]cc(-c2cc(N3CCC(c4cccc(C(F)(F)F)c4)C3)c3nccn3n2)c(=O)[nH]1 (stereo not drawn) [Example 249]	Not fulfilled
10) O=c1[nH]cc(-c2cc(N3C[C@H](Oc4ccc(C(F)(F)F)cn4)C(F)(F)C3)c3nccn3n2)c(=O)[nH]1 [Example 529]	Fulfilled

====

Below, each entry is listed alongside its reported pIC50.
Molecular target: CD73 (Homo sapiens (Human), UniProt P21589)
Sequence (P21589 27-574): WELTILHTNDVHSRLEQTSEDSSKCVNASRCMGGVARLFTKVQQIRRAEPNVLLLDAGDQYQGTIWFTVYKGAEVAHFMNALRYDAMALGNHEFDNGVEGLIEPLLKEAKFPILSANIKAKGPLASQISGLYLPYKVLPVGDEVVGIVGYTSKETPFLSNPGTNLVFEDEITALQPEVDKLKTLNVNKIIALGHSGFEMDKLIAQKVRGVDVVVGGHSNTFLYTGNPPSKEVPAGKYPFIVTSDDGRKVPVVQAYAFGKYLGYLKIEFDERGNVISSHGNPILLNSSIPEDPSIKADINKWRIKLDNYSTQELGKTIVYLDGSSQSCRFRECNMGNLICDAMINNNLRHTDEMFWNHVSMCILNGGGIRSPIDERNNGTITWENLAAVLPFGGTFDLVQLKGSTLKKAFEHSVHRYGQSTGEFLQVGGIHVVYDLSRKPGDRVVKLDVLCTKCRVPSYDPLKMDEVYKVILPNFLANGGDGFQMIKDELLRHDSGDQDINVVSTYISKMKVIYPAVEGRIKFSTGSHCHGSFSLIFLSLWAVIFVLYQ
Assay: CD73 Biochemical IC50 Assay
Conditions: CD73 0.3 nM, AMP 15 uM, 25 mM Tris pH 7.4, 5 mM MgCl2
pIC50: −log10 of the molar value.
result type: pIC50

1. CC(C)c1cc(-c2c[nH]c(=O)[nH]c2=O)nn2cnnc12	6.44
2. O=c1[nH]cc(-c2cc(N3CCCC(F)(F)C3)c3nccn3n2)c(=O)[nH]1	6.28

====

Biological target: CD73 (Homo sapiens (Human), UniProt P21589)
Test: MDA-MB-231 Cell Based CD73 Activity Assay (DMEM)
Settings: MDA-MB-231-GFP cells, DMEM medium with 10% human plasma, 200 uM AMP
Below, each entry is listed alongside its reported EC50.
result type: EC50 (nM)

1) CC1(C)CN(c2cc(-c3c[nH]c(=O)[nH]c3=O)nn3cc(Cl)nc23)CC1(F)F	40.5
2) O=c1[nH]cc(-c2cc([C@H]3C[C@@H]3c3ccc(C(F)(F)F)cn3)c3nccn3n2)c(=O)[nH]1 (racemic) [Example 149]	7.61
3) O=c1[nH]cc(-c2cc(N3CC4(C3)CC4(F)F)c3nccn3n2)c(=O)[nH]1	98.2
4) O=c1[nH]cc(-c2cc(N3CC4CC(C4)C3)c3nccn3n2)c(=O)[nH]1	18.8

====

Biological target: UniProt P21589
Experiment: MDA-MB-231 Cell Based CD73 Activity Assay (DMEM)
Settings: MDA-MB-231-GFP cells, DMEM medium with 10% human plasma, 200 uM AMP
pEC50: −log10 of the molar value.
Below, each entry is listed alongside its reported pEC50.
result type: pEC50

1) O=C(OCC(F)(F)F)O[C@H]1CN(c2cc(-c3c[nH]c(=O)[nH]c3=O)nn3ccnc23)CC1(F)F	7.44
2) CC1(CC(F)F)CN(c2cc(-c3c[nH]c(=O)[nH]c3=O)nn3ccnc23)C1	6.45
3) O=c1[nH]cc(-c2cc(N3CC(F)C4(CC4)C3)c3nccn3n2)c(=O)[nH]1 (centres unmarked)	7.85
4) O=c1[nH]cc(-c2cc(N3CC(Oc4ccc(C(F)(F)F)cn4)(C(F)(F)F)C3)c3nccn3n2)c(=O)[nH]1	7.84
5) CC(C)(C)NC(=O)O[C@H]1CN(c2cc(-c3c[nH]c(=O)[nH]c3=O)nn3ccnc23)CC1(F)F	9.89
6) N#Cc1ccc(O[C@H]2CN(c3cc(-c4c[nH]c(=O)[nH]c4=O)nn4ccnc34)CC2(F)F)cc1	8.96
7) Cc1nc2ccc([C@H]3C[C@@H]3c3cc(-c4c[nH]c(=O)[nH]c4=O)nn4ccnc34)cc2s1 (racemic)	9.08
8) O=c1[nH]cc(-c2cc([C@H]3C[C@@H]3c3ccc(OCC(F)(F)F)cc3)c3nccn3n2)c(=O)[nH]1 (racemic)	7.50
9) C[C@H](CNc1cc(-c2c[nH]c(=O)[nH]c2=O)nn2ccnc12)c1ccccc1	6.30
10) CC1(C)CN(c2cc(-c3c[nH]c(=O)[nH]c3=O)nn3c(F)c(C4CC4)nc23)CC1(F)F	6.85
11) O=c1[nH]cc(-c2cc([C@H]3C[C@@H]3c3ccc(C(F)(F)F)cc3)c3ncnn3n2)c(=O)[nH]1	8.13
12) N#CC12CC1CN(c1cc(-c3c[nH]c(=O)[nH]c3=O)nn3ccnc13)C2 (centres unmarked)	6.40
13) O=c1[nH]cc(-c2cc([C@H]3C[C@@H]3c3ccc4c(c3)OC(F)(F)O4)c3nccn3n2)c(=O)[nH]1 (racemic)	7.54
14) O=c1[nH]cc(-c2cc([C@H]3C[C@@H]3c3cc(-c4ccccc4C(F)(F)F)ccn3)c3nccn3n2)c(=O)[nH]1 (racemic)	7.56

====

Below, each entry is listed alongside its reported IC50.
Molecular target: CD73 (Homo sapiens (Human))
Format: biochemical
Conditions: 1 mM NaH2PO4 in enzyme buffer, CD73 0.3 nM, AMP 15 uM
result type: IC50 (nM)

1. O=c1[nH]cc(-c2cc(N3CCC4(CCCC4)C3)c3nccn3n2)c(=O)[nH]1 [Example 315]	6.64
2. O=c1[nH]cc(-c2cc([C@H]3C[C@@H]3c3ncc(C(F)(F)F)cc3F)c3nccn3n2)c(=O)[nH]1 [Example 635]	2.08
3. O=C1N(CC(F)(F)F)c2cc([C@H]3C[C@@H]3c3cc(-c4c[nH]c(=O)[nH]c4=O)nn4ccnc34)ccc2C12CCC2 [Example 384]	1.27

====

Molecular target: CD73 (Homo sapiens (Human), UniProt P21589)
Format: biochemical
Conditions: 1 mM NaH2PO4 in enzyme buffer, CD73 0.3 nM, AMP 15 uM
result type: IC50 (nM)

1. CN(C)C(=O)COC1CN(c2cc(-c3c[nH]c(=O)[nH]c3=O)nn3ccnc23)CC1(F)F (stereo not drawn)	1.63
2. CC(F)(F)CN1C(=O)C2(CC2)c2ccc([C@H]3C[C@@H]3c3cc(-c4c[nH]c(=O)[nH]c4=O)nn4ccnc34)cc21 (racemic)	2.72
3. O=c1[nH]cc(-c2cc([C@H]3C[C@@H]3c3cc4c(cnn4CC(F)(F)F)cc3F)c3nccn3n2)c(=O)[nH]1	1.27

====

Biological target: CD73 (Homo sapiens (Human), UniProt P21589)
Assay type: biochemical
Conditions: 1 mM NaH2PO4 in enzyme buffer, CD73 0.3 nM, AMP 15 uM
Below, each entry is listed alongside its reported IC50.
result type: IC50 (nM)

1) O=c1[nH]cc(-c2cc([C@H]3C[C@@H]3c3cnc4c(F)nn(CC(F)(F)F)c4c3)c3ncc(Cl)n3n2)c(=O)[nH]1	0.51
2) O=c1[nH]cc(-c2cc(N3CCC(F)(F)C3)c3ncc(F)n3n2)c(=O)[nH]1	11
3) O=c1[nH]cc(-c2cc(N3CC[C@H](CC(F)F)C3)c3nccn3n2)c(=O)[nH]1	28.7
4) O=c1[nH]cc(-c2cc([C@H]3C[C@@H]3c3ccc4c(C5CC5)nn(CC(F)(F)F)c4c3)c3nccn3n2)c(=O)[nH]1 (racemic)	1.84

====

Target: CD73 (Homo sapiens (Human), UniProt P21589)
Format: biochemical
Details: 1 mM NaH2PO4 in enzyme buffer, CD73 0.3 nM, AMP 15 uM
pIC50: −log10 of the molar value.
Below, each entry is listed alongside its reported pIC50.
result type: pIC50

1. O=c1[nH]cc(-c2cc([C@H]3C[C@@H]3c3cc4c(cn3)cnn4CC(F)(F)F)c3ncc(F)n3n2)c(=O)[nH]1 (racemic) [Example 604]	9.08
2. Cc1nc2c(N3CC(C)(C)C(F)(F)C3)cc(-c3c[nH]c(=O)[nH]c3=O)nn2c1F	7.14
3. N#Cc1ccc([C@H]2C[C@@H]2c2cc(-c3c[nH]c(=O)[nH]c3=O)nn3ccnc23)cc1OC(F)(F)F (racemic)	8.52
4. Cc1nc2cc([C@H]3C[C@@H]3c3cc(-c4c[nH]c(=O)[nH]c4=O)nn4ccnc34)ccc2s1 (racemic)	8.95
5. O=c1[nH]cc(-c2cc([C@H]3C[C@@H]3c3ccc(F)c(F)c3F)c3nccn3n2)c(=O)[nH]1 (racemic)	8.83
6. CC1(C)C2CN(c3cc(-c4c[nH]c(=O)[nH]c4=O)nn4ccnc34)CC21 (stereo not drawn)	7.51
7. O=c1[nH]cc(-c2cc(N3C[C@@H](F)[C@@H](F)C3)n3ncnc3n2)c(=O)[nH]1	7.81
8. O=c1[nH]cc(-c2cc(N3CC(OC(F)F)C4(CC4)C3)c3nccn3n2)c(=O)[nH]1 (stereo not drawn)	7.32
9. O=C(c1ccc([C@H]2C[C@@H]2c2cc(-c3c[nH]c(=O)[nH]c3=O)nn3c(F)cnc23)cc1)N1CC(F)(F)C1	8.63
